- Test system: SN12C renal
- assay_text: NCI tumour cell line growth inhibition, 384-well format; in the data active = GI50 below about 0.43 µM; inactive = the rest
Outcome codes: 1 for active, 0 for inactive

{"columns": ["chemical_string", "target", "label_class"],
 "data": [
  ["CC[C@@]1(O)C(=O)OCc2c1cc1n(c2=O)Cc2c-1nc1cc(F)c(C)c3c1c2[C@@H](NC(=O)CO)CC3", "SN12C renal", 1],
  ["COCCn1c2c([n+](Cc3cnccn3)c1C)C(=O)c1ccccc1C2=O", "SN12C renal", 1],
  ["COc1cc(N2CCC(N)CC2)ccc1Nc1ncc(Cl)c(-c2c[nH]c3ccccc23)n1", "SN12C renal", 0],
  ["COc1cc(C)[nH]c(=O)c1CNC(=O)c1c(C)n([C@H](C)C2CCN(CC(F)(F)F)CC2)c2ccccc12", "SN12C renal", 0]
]}
